Biological target: T1, 4H780-AA
T1 chain: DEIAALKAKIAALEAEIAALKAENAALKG
Assay: two-hybrid library CCmax;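 further: natural log of median RNA to DNA barcode read ratio; higher means stronger binding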
Conditions: mean of both orientations
reported-metric: interaction score

I would be grateful if you could share the reported interaction score for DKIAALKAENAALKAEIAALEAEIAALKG [4H2754-AA] .
-1.74

Now the same for DEIAALKAENAALKAEIAALKAKIAALEG [4H717-AA]
-1.38

P. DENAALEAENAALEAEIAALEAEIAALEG [4H1153-AA]
Q. DKNAALKAKIAALEAEIAALEAENAALKG [4H3844-AA]
Short answer wanted: higher interaction score, P or Q ? API: response body contains the label of the selected item.
Q
(Q: 0.995, P: -1.44)
